// data source = paper PMC6593727

- TGT: CYP2C19 (Homo sapiens, UniProt P33261)
- Sequence (P33261 whole entry): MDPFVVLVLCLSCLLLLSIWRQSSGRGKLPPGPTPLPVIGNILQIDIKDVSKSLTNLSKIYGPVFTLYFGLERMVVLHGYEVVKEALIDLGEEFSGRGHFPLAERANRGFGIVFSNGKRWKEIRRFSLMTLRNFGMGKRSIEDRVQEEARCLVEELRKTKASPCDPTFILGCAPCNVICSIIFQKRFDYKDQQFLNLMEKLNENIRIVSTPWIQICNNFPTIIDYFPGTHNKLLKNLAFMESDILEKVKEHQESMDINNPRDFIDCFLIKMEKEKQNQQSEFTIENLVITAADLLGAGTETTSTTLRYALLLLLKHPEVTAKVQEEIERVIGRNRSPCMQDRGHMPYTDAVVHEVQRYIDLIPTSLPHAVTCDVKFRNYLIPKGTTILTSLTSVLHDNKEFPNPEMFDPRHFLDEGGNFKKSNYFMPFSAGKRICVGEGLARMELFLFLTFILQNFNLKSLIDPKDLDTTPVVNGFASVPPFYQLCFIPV
- CONDITION SUMMARY: female, human, plasma, oral, t½, + 20 mg ASP8477 once daily (day 7); mean ± SD
PARAMETER MEASURED: half-life (min)
Could you give me the number in min? Just the number is fine.

Form field - read-out: half-life; system: CYP2C19 (Homo sapiens, UniProt P33261); submitted item: COc1ccc2[nH]c([S+]([O-])Cc3ncc(C)c(OC)c3C)nc2c1 (stereo not shown)
46.2
